# credit: patent US5140009A

system: male castrate rats; assay: In vivo LH Inhibiton; parameters: species or system rat; settings: table 4, 30 ug/kg subcutaneously by bolus injection, AUC of log (LHt /LHi)
Numbered stars: 1 amine (or outer) side, 2 acyl side, 3 side chain; on linkers, the order of the positions; unused ones are H or OH. Square brackets hold non-standard residues; d marks the D form. Side chains are listed from the residue outwards. Peptide text beside a SMILES is read from it. * marks the point of attachment. Propanoyl(3-(4-F-phenyl)) = O=C(CCc1ccc(F)cc1)*; d1Nal = N[C@H](Cc1cccc2ccccc12)C(=O)O; Lys(iPr) = CC(C)NCCCC[C@H](N)C(=O)O; NMeY = CN[C@@H](Cc1ccc(O)cc1)C(=O)O; Pyrazinecarbonyl = O=C(c1cnccn1)*; Piperazinyl(4-Me) = CN1CCN(*)CC1; Nicotinoyl = O=C(c1cccnc1)*; CO = O=C([*:1])[*:2]
Entries and their AUC (24 hr. after 30 ug/kg) values follow.
Write the value as a bare number.

>  <Compound>
CCNC(=O)[C@@H]1CCCN1C(=O)[C@H](CCCCNC(C)C)NC(=O)[C@H](CC(C)C)NC(=O)[C@@H](CCCCNC(=O)c1cccnc1)NC(=O)[C@H](Cc1ccc(O)cc1)N(C)C(=O)[C@H](CO)NC(=O)[C@@H](Cc1cccc2ccccc12)NC(=O)CCc1ccc(F)cc1 [Compound 209] ({Propanoyl(3-(4-F-phenyl))}-[d1Nal]S[NMeY][dK](Nicotinoyl)L[Lys(iPr)]P-NHEt)

>  <AUC (24 hr. after 30 ug/kg)>
-343

$$$$
>  <Compound>
CC(C)C[C@H](NC(=O)[C@@H](CCCCNC(=O)N1CCN(C)CC1)NC(=O)[C@H](Cc1ccc(O)cc1)N(C)C(=O)[C@H](CO)NC(=O)[C@@H](Cc1cccc2ccccc12)NC(=O)CCc1ccc(F)cc1)C(=O)N[C@@H](CCCNC(=N)N)C(=O)N1CCC[C@H]1C(=O)N[C@H](C)C(N)=O [Compound 211] ({Propanoyl(3-(4-F-phenyl))}-[d1Nal]S[NMeY][dK]([CO-Piperazinyl(4-Me)])LRP[dA]-NH2)

>  <AUC (24 hr. after 30 ug/kg)>
-449

$$$$
>  <Compound>
CC(C)C[C@H](NC(=O)[C@@H](CCCCNC(=O)c1cnccn1)NC(=O)[C@H](Cc1ccc(O)cc1)N(C)C(=O)[C@H](CO)NC(=O)[C@@H](Cc1cccc2ccccc12)NC(=O)CCc1ccc(F)cc1)C(=O)N[C@@H](CCCCNC(C)C)C(=O)N1CCC[C@H]1C(=O)N[C@H](C)C(N)=O [Compound 207] ({Propanoyl(3-(4-F-phenyl))}-[d1Nal]S[NMeY][dK](Pyrazinecarbonyl)L[Lys(iPr)]P[dA]-NH2)

>  <AUC (24 hr. after 30 ug/kg)>
-412

$$$$

Now for another entry.
Given CC(C)C[C@H](NC(=O)[C@@H](CCCCNC(=O)c1cccnc1)NC(=O)[C@H](Cc1ccc(O)cc1)N(C)C(=O)[C@H](CO)NC(=O)[C@@H](Cc1c[nH]c2ccccc12)NC(=O)CCc1ccc(F)cc1)C(=O)N[C@@H](CCCCNC(C)C)C(=O)N1CCC[C@H]1C(=O)N[C@H](C)C(N)=O [Compound 195] ({Propanoyl(3-(4-F-phenyl))}-[dW]S[NMeY][dK](Nicotinoyl)L[Lys(iPr)]P[dA]-NH2) , state its recorded AUC (24 hr. after 30 ug/kg). -158
